Exercise: for every item that follows, state its recorded z-score.
test: MM1S myeloma cell viability, profiling panel, resazurin fluorescence, basal, 24 h, PK04 Diversity Set (AID 1174); settings: higher = more signal, called active from +8 up or from −8 down;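 further: MM1S multiple myeloma cell line; test concentration not given here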
Numbers only.

Molecule	z-score
O=C1OCC=C[C@H]2OC34C=CCN(c5ccc6ccccc6c5)C(=O)[C@H]3N(CCCCCO)C(=O)[C@@H]4[C@@H]12 (some centres undefined)	-0.818
COc1ccc([Si](C)(C)[C@@H]2[C@@H](CCn3cc([C@H](O)c4ccccc4)nn3)O[C@]3(C(=O)N(c4ccccc4)c4ccccc43)[C@H]2C)cc1	-3.04
Cc1ccc(S[C@]2(C(=O)NC(C)C)CC(=O)N(Cc3ccccc3Cl)[C@@H]2c2ccc(CO)cc2)cc1	-0.514
COCC1C2CC[C@H]3C(OCc4ccc(OC)cc4)OC[C@]4(C)[C@H]3C2=C(CN4C(=O)OC(C)(C)C)[C@H](C)C1COC (some centres undefined)	-0.79
C=C[C@@H](OC)[C@H](OC(=O)Nc1ccc(SC)cc1)c1ccc(OCCO)cc1	-0.415

Hey, can you go through the list below and give me z-score for every item?
1. CCCCCCCCCCC(O)C1C=CC2C(=O)N(C)C(=O)C2N1Nc1cc(OC)c(OC)c(OC)c1 (centres undefined)
2. CCCCNC(=O)c1ccc(C#C[Si](C(C)C)(C(C)C)C(C)C)c(OC(C)=O)c1

**A:**
-3.17
0.219

---

molecular target: Pro-neuregulin-1, membrane-bound isoform (Homo sapiens) (UniProt Q02297); experiment: NRG1 binders on small-molecule microarrays, primary screen, psychiatric disease protein project, biochemical, small-molecule microarray, fluorescence 635/667 (AID 1075); conditions: NRG1 binding, 635 nm fluorescence, higher = more signal;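 further: score combines 667 nm spot fluorescence with signal to noise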
Sequence (Q02297 whole entry, looked up, canonical isoform): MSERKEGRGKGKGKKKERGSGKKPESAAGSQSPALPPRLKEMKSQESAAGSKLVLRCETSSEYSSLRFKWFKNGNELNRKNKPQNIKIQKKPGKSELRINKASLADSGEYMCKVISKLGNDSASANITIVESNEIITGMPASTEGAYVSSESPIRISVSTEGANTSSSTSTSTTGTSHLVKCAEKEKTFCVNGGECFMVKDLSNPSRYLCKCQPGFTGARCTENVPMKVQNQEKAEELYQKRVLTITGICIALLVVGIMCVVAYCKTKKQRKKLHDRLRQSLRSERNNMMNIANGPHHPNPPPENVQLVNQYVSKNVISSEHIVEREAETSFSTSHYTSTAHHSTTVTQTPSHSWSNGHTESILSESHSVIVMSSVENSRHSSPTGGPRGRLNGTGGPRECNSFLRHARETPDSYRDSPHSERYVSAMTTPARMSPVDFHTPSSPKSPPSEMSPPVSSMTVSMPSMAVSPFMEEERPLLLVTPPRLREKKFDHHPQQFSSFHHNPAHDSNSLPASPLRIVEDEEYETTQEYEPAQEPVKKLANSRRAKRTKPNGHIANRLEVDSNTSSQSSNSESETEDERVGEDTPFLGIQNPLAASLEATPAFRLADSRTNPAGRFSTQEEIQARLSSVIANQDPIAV
Exercise: for every item that follows, state its recorded composite z-score.
One number for each entry.

Record excerpt, results attached:
Compound	composite z-score
CCOC(=O)C[C@H]1[C@H](OC(=O)c2ccc(C(=O)c3ccccc3)cc2)[C@@H](NC(=O)CC(C)C)c2cc(OCCCO)ccc2N1C(=O)Cc1ccc(OC)cc1	0.517
CCC(CC)C(O)C1C=CC2C(=O)N(c3ccccc3)C(=O)C2N1Nc1ccc([N+](=O)[O-])cc1 (configuration not stated)	1.07

Hey, can you go through the list below and give me composite z-score for every item?
1. CO[C@H]1O[C@H](CO)[C@@H](OC(=O)CCc2ccccc2)[C@H](OC(=O)c2cc3ccccc3[nH]2)[C@H]1OC(=O)c1cc2ccccc2[nH]1
2. CCOC(=O)C[C@H]1[C@H](OC(=O)c2ccccc2-c2ccccc2)[C@@H](NC(=O)c2ccc3ccccc3n2)c2cc(OCCCO)ccc2N1C(=O)c1ccccc1

**A:**
[1.21, 0.288]

Hey, can you go through the list below and give me composite z-score for every item?
1. CC(C)C(=C=CC[C@@H](O)c1cccc(OCCO)c1)C[C@@H](O)c1ccccn1
2. CN1C(=O)C2C=CC(C(O)c3cc(C(F)(F)F)cc(C(F)(F)F)c3)N(Nc3ccccc3)C2C1=O (configuration not stated)
3. CC(=O)NCCCC[C@@H]1NC(=O)[C@@H]2C[C@H](C(=O)NCCCCCCN)[C@H](c3cccc(OCCO)c3)N2C1=O

**A:**
1: -0.253; 2: 0.862; 3: 1.63

---

Exercise: for every item that follows, state its recorded composite z-score.
tested on: PRMT1 (protein arginine N-methyltransferase 1); experiment: PRMT1 binders on small-molecule microarrays, primary screen, biochemical, small-molecule microarray, 635 nm fluorescence (AID 1088); conditions: small-molecule microarray binding, higher = more signal;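 further: binding of Prmt1 protein to compounds spotted on small-molecule microarray slides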
Give bare numbers.

Record excerpt, results attached:
Compound	Tested on	Reported value
CC(C)OC(=O)CC(=O)CC(O)c1ccc([N+](=O)[O-])cc1 (configuration not stated)	PRMT1 (protein arginine N-methyltransferase 1)	0.65
C=C(/C(=C/C[C@H](OC(=O)c1ccncc1)c1cccc(OCCO)c1)c1cnc2ccccc2c1)C(C)C	PRMT1 (protein arginine N-methyltransferase 1)	1.54
COC(=O)[C@@]1(Cc2ccc(F)cc2)[C@H]2c3cc(C(=O)N(C)C)n(Cc4ccc(O)c(OC)c4)c3C[C@H]2CN1C(=O)c1ccccc1	PRMT1 (protein arginine N-methyltransferase 1)	0.423
COCCOC(=O)N1C(=O)[C@@]2(c3cc(C#CCNC(N)=O)ccc31)[C@H](c1ccc(OCCO)cc1)N1[C@H](c3ccccc3)[C@H](c3ccccc3)OC(=O)[C@H]1[C@@H]2C(=O)NC[C@H](O)c1ccccc1	PRMT1 (protein arginine N-methyltransferase 1)	1.57
C=CCC(OC(C)=O)[C@@H]1[C@@H](N(Cc2ccc(-c3ccccc3)cc2)C(=O)c2ccc(C)cc2)c2cc(OCCCO)ccc2N1C(=O)Cc1ccc2ccccc2c1 (some centres not stated)	PRMT1 (protein arginine N-methyltransferase 1)	0.543

Hey, can you go through the list below and give me composite z-score for every item?
1. C=CCNC(=O)[C@H]1[C@@H]2C(=O)O[C@@H](c3ccccc3)[C@@H](c3ccccc3)N2[C@@H](c2ccc(OCCO)cc2)[C@]12C(=O)N(C(=O)OCCOC)c1ccc(C#Cc3ccc(OC)cc3)cc12
2. O=C1N[C@@H](Cc2ccccc2)C(=O)N2[C@@H]1C[C@@H](C(=O)O)[C@H]2c1ccc(O)cc1
3. [N-]=[N+]=Nc1ccccc1C[C@]1(C(=O)O)N=C(c2ccc(OCCCO)cc2)O[C@H]1c1ccccc1N=[N+]=[N-]
4. Cc1ccc(S[C@]2(C(=O)NCc3ccccc3)CC(=O)N(Cc3cc(C(F)(F)F)cc(C(F)(F)F)c3)[C@@H]2c2ccc(CO)cc2I)cc1
5. Cc1ccc(S[C@]2(C(=O)NC(C)C)CC(=O)N(Cc3ccccc3Cl)[C@@H]2c2ccc(CO)cc2)cc1
6. C=CC1c2cc(O)c(OC)cc2CCN1Cc1ccc([N+](=O)[O-])o1 (configuration not stated)
7. COCCCNC(=O)[C@@]1(Sc2ccc(C)cc2)CC(=O)N(C(C)C)[C@@H]1c1ccc(CO)cc1I

**A:**
1: 1.41; 2: 1.19; 3: 1.43; 4: -0.455; 5: -0.577; 6: -0.047; 7: 1.31

Hey, can you go through the list below and give me composite z-score for every item?
1. COC(=O)[C@@]1(Cc2ccc(F)cc2)[C@H]2c3cc(C(=O)N4CCCC4)n(CC4CC4)c3C[C@H]2CN1C(=O)c1ccccc1
2. C=CCOC(=O)[C@H]1[C@@H]2C(=O)O[C@@H](c3ccccc3)[C@@H](c3ccccc3)N2[C@@H](c2ccc(OCCOC(=O)[C@H]3C[C@H]4C(=O)N[C@@H](CCCCNC(C)=O)C(=O)N4[C@H]3c3cccc(OCCO)c3)cc2)[C@]12C(=O)Nc1ccc(I)cc12
3. CCOC(=O)C1=C[C@@H](c2ccccc2)N(S(=O)(=O)c2ccc(C)cc2)[C@H]1c1ccccc1

**A:**
1. 0.649
2. 1.55
3. 0.712

Hey, can you go through the list below and give me composite z-score for every item?
1. C=CCNC(=O)[C@@H]1[C@H]2C(=O)O[C@H](c3ccccc3)[C@H](c3ccccc3)N2[C@H](c2ccc(O)cc2)[C@@]12C(=O)N(C(=O)OCCOC)c1ccc(C#CCCO)cc12
2. [N-]=[N+]=Nc1ccccc1[C@@H]1OC(c2ccc(OCCCO)cc2)=N[C@]1(Cc1ccccc1)C(=O)NCc1ccccc1
3. Cc1ccc(C(C)CC(O)C2C=CC3C(=O)N(c4ccccc4)C(=O)C3N2Nc2ccc(C#N)cc2)o1 (configuration not stated)
4. C[C@@H]1ON(c2ccc(I)cc2)[C@H](c2ccc(OC(=O)OC(C)(C)C)cc2)[C@H]1C(=O)N1C(=O)OC[C@H]1Cc1ccccc1
5. C#C[C@@H](CC)O[Si](C#CCCCC#N)(C(C)C)C(C)C

**A:**
[1.41, 1.47, 1.55, 1.35, 1.12]

Hey, can you go through the list below and give me composite z-score for every item?
1. COCCOC(=O)N1C(=O)[C@@]2(c3cc(C#CC4(O)CCCCCC4)ccc31)[C@H](C(=O)N1CCN(c3ncccn3)CC1)[C@H]1C(=O)O[C@H](c3ccccc3)[C@H](c3ccccc3)N1[C@@H]2c1ccccc1OCCO
2. CC(C)C[C@@H]1NC(=O)[C@@]23C(=O)N[C@@H](Cc4ccccc4)C2[C@H](C)[C@@]2(C)O[C@H]2C3/C=C/C/C=C\CNC(=O)[C@@H](C)NC1=O (some centres not stated)
3. NC(=O)N1C(=O)C2C(C1=O)C1C=C(CCCO)C2C(C2CC2)N1Cc1cccc(OC(F)(F)F)c1 (configuration not stated)
4. [N-]=[N+]=NC[C@H](Cc1ccccc1)NC(=O)c1ccccc1

**A:**
1.2
0.5
0.639
0.376

Hey, can you go through the list below and give me composite z-score for every item?
1. NCCCCCNC(=O)[C@@H]1C[C@@H]2C(=O)N3CCC[C@H]3C(=O)N2[C@@H]1c1ccc(O)cc1
2. CC(C)[C@H]1NC(=O)[C@@]23C(=O)N[C@@H](Cc4ccccc4)C2[C@H](C)[C@@]2(C)O[C@H]2C3/C=C/C/C=C\CNC(=O)[C@H](Cc2ccccc2)NC1=O (some centres not stated)
3. CC(C)C(=C=CC[C@@H](O)c1cccc(OCCO)c1)C[C@@H](O)COCc1ccccc1

**A:**
1. 0.61
2. 1.53
3. 0.566

Where do these numbers come from? They come from PubChem BioAssay.
